tested.on: T1, S1-Fc (SARS-CoV-2, UniProt P0DTC2 14-685)
T1 construct: also called S1 Fc fusion protein
assay.method.text: phage ELISA
specificity ELISA, percent binding relative to Acro S1 overview
quantity.name: specificity ELISA, percent binding relative to Acro S1 (%)

{"columns": ["binder", "units.of.measure", "assay.result"],
 "data": [
  ["variant 2-2 (antibody, V domains shown) VH: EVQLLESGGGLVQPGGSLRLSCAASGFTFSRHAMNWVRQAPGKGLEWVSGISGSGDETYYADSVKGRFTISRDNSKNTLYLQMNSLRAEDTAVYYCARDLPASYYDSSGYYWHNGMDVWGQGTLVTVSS VL: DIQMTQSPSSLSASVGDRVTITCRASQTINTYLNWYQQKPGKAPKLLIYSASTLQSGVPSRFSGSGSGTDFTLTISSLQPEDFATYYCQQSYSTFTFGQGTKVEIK", "%", 12],
  ["variant 2-4 (antibody, V domains shown) VH: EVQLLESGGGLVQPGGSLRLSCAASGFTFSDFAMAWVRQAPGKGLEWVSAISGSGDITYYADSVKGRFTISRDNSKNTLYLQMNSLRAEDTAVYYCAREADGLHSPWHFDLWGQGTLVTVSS VL: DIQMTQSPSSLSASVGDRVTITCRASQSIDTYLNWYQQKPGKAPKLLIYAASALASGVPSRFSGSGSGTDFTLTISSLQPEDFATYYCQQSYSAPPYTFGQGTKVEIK", "%", 19],
  ["variant 2-13 (antibody, V domains shown) VH: EVQLLESGGGLVQPGGSLRLSCAASGFTFSDYPMNWVRQAPGKGLEWVSAISGSGDNTYYADSVKGRFTISRDNSKNTLYLQMNSLRAEDTAVYYCVRHDEYSFDYWGQGTLVTVSS VL: DIQMTQSPSSLSASVGDRVTITCRASQSIDTYLNWYQQKPGKAPKLLIYGASALESGVPSRFSGSGSGTDFTLTISSLQPEDFATYYCQQSHSAPPYFFGQGTKVEIK", "%", 13.4]
]}
